Target: CYP3A4 (Homo sapiens)
Sequence (P08684 whole entry): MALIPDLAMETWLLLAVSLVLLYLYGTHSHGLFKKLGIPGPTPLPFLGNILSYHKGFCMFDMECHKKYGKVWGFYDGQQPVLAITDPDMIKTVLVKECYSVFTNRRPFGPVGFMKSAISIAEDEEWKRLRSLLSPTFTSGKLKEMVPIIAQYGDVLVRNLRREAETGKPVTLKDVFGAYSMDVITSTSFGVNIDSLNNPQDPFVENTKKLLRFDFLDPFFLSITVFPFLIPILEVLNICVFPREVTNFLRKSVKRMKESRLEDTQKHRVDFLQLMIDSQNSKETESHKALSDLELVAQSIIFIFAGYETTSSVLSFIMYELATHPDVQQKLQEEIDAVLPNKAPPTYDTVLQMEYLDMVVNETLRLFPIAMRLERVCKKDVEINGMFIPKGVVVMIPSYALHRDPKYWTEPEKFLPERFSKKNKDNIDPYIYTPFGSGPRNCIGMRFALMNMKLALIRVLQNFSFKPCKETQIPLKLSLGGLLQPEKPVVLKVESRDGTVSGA
Assay: Inhibition of CYP3A4 at 3 uM
Type: ADME
reported_endpoint: inhibition at 3 µM (%)
Give bare numbers, in %.

Field: example entries. Status: answers known.
COc1ccccc1COCCCOc1ccc(N2C(=O)CNC[C@@H]2COc2ccc3c(c2)N(CCCO)CCC3)cc1 ... 71
COc1ccccc1COCCCOc1ccc(N2C(=O)CNC[C@@H]2COc2ccc3c(c2)N(CCNC(C)=O)CCC3)cc1 ... 92
COCCCN1C(=O)CCc2ccc(OC[C@H]3CNCC(=O)N3c3ccc(OCCCOCc4ccccc4OC)cc3)cc21 ... 92
COCCCN1C(=O)COc2ccc(OC[C@H]3CNCC(=O)N3c3ccc(OCCCOCc4ccccc4OC)cc3)cc21 ... 95
COCCCN1C(=O)COc2ccc(SC[C@H]3CNCC(=O)N3c3ccc(OCCCOCc4ccccc4OC)cc3)cc21 ... 95
COc1ccccc1COCCCOc1ccc(N2C(=O)CNC[C@@H]2COc2ccc3c(c2)N(CCOC(C)=O)CCC3)cc1 ... 87
COc1ccccc1COCCCOc1ccc(N2C(=O)CNC[C@@H]2COc2ccc3c(c2)N(CCOC(=O)C(C)C)CCC3)cc1 ... 92
COCCCN1CCCc2ccc(OC[C@H]3CNCC(=O)N3c3ccc(OCCCOCc4ccccc4OC)cc3)cc21 ... 96

Next:
Query: Fill blank: measured inhibition at 3 µM of the compound `CCC(=O)OCCN1CCCc2ccc(OC[C@H]3CNCC(=O)N3c3ccc(OCCCOCc4ccccc4OC)cc3)cc21` is ____.
Response: 96

====

Target: Cytochrome P450 3A4 (Homo sapiens, UniProt P08684)
I'd appreciate it if you could supply pIC50 values for the items below.
Numbers only, as −log10 of the molar value.

Known results for compounds:
COc1ccccc1COCCCOc1ccc(N2C(=O)CNC[C@@H]2COc2ccc3c(c2)N(CCN2CCCC2=O)CCC3)cc1 ... 7.38
COc1ccccc1COCCCOc1ccc(N2C(=O)CNC[C@@H]2COc2ccc3c(c2)N(CCN2CCOC2=O)CCC3)cc1 ... 5.42
COc1ccccc1COCCCOc1ccc(N2C(=O)CNC[C@@H]2COc2ccc3c(c2)N(CCOC(=O)C(C)C)CCC3)cc1 ... 7.27

Could you tell me pIC50 for each of these compounds? They are listed below.
1. COc1ccccc1COCCCOc1ccc(N2C(=O)CNC[C@@H]2COc2ccc3c(c2)N(CC(=O)O)C(=O)CO3)cc1
2. COCCCN1C(=O)CCc2ccc(OC[C@H]3CNCC(=O)N3c3ccc(OCCCOCc4ccccc4OC)cc3)cc21
3. COc1ccccc1COCCCOc1ccc(N2C(=O)CNC[C@@H]2COc2ccc3c(c2)N(CCC(=O)O)CCC3)cc1

Response:
[4.60, 7.46, 5.00]

====

Answer each item with its documented pIC50.
Target: Renin (Homo sapiens)
Sequence (P00797 whole entry): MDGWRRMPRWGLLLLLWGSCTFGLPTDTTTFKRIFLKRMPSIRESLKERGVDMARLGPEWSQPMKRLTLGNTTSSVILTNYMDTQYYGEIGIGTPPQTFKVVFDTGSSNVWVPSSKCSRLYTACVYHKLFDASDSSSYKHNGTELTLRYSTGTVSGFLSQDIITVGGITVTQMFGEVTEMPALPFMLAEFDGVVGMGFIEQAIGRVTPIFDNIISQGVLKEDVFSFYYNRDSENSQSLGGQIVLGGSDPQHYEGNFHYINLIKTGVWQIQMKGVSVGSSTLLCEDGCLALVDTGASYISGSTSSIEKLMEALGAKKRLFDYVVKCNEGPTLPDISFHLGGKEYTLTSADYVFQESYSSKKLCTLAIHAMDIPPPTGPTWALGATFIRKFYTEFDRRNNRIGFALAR
One number for each entry, as −log10 of the molar value.

COCCCN1C(=O)COc2ccc(OC[C@H]3CNCC(=O)N3c3ccc(OCCCOCc4ccccc4OC)cc3)cc21 ... 9.17

Hey, quick one: what's pIC50 for each of these?
1. COc1ccccc1COCCCOc1ccc(N2C(=O)CNC[C@@H]2COc2ccc3c(c2)N(CCOC(=O)C(C)C)CCC3)cc1
2. COc1ccccc1COCCCOc1ccc(N2C(=O)CNC[C@@H]2COc2ccc3c(c2)N(CCNC(C)=O)CCC3)cc1

Response:
6.26
9.54

Entry source: ChEMBL document CHEMBL1146987
